The measured values listed here are drawn from paper PMC9250534.

# Target Of Assay: thrombin (Homo sapiens, UniProt P00734)
# Construct: consists of two polypeptide chains of 36 (light chain) and 259 amino acid
# Method Notes: Thrombin inhibition screen of crude macrocycle reactions (residual thrombin activity, fluorogenic substrate Z-Gly-Gly-Arg-AMC)
# Type: biochemical
# Test Conditions: 10 µM macrocycle concentration; macrocycles containing acid 14; crude reaction; replicate reaction and screen
Numbered stars: 1 amine (or outer) side, 2 acyl side, 3 side chain; on linkers, the order of the positions; unused ones are H or OH. Bridge positions count the residues as written; N and C are the ends. Square brackets hold non-standard residues; d marks the D form. Peptide text beside a SMILES is read from it. * marks the point of attachment. 2Thenoyl(5-Cl) = O=C(c1ccc(Cl)s1)*; Cysteamide = C(CS[*:3])N[*:1]; dDap = NC[C@@H](N)C(=O)O; Mpa = O=C(O)CCS
Experimental Endpoint: % thrombin activity, Repeat screen (%)

Some compounds with known % thrombin activity, Repeat screen results, for comparison:
Compound	Scale Unit	Value Measured
CC(C)C[C@@H]1NC(=O)[C@H](CCCNC(=O)c2ccc(Cl)s2)NC(=O)CCSSCCNC(=O)[C@H]2CCCN(C2)C1=O [X D2 L B4]	%	94.7
CC(C)[C@@H]1NC(=O)[C@H](CNC(=O)c2ccc(Cl)s2)NC(=O)[C@H]2CCCN(C2)C(=O)CCSSCCNC1=O	%	58.2
NC(=O)CCC1NC(=O)CCNC(=O)C(CNC(=O)c2ccc(Cl)s2)NC(=O)CCSSCCNC1=O (stereo not drawn)	%	92.1

(a) O=C1CCSSCCNC(=O)[C@@H](Cc2ccccc2)NC(=O)c2cccc(c2)CNC(=O)C2(CCN(C(=O)c3ccc(Cl)s3)CC2)N1
(b) O=C1CCSSCCNC(=O)[C@H](CNC(=O)c2ccc(Cl)s2)NC(=O)[C@H](Cc2ccccc2)NC(=O)CCN1
# compare % thrombin activity, Repeat screen for a vs b ; return the one with the smaller value Your choice should be expressed through its label.
b

(I) CC(C)[C@@H]1NC(=O)c2ccc(cc2)CNC(=O)CCSSCCNC(=O)[C@H](CCCCNC(=O)c2ccc(Cl)s2)NC1=O [X B3 V D1]
(II) O=C1CCSSCCNC(=O)[C@@H]2CCCN2C(=O)[C@@H](Cc2c[nH]c3ccccc23)NC(=O)[C@@H](CNC(=O)c2ccc(Cl)s2)N1 [X D4 w B1] ([Mpa][dDap](2Thenoyl(5-Cl))[dW]P-Cysteamide; disulfide 1-C)
Return label of the item with the larger % thrombin activity, Repeat screen. Candidates: I , II . Your choice should be expressed through its label.
I
(I: 107.7%, II: 70.9%)

====

# Target Of Assay: thrombin (Homo sapiens, UniProt P00734)
# Construct: consists of two polypeptide chains of 36 (light chain) and 259 amino acid
# Method Notes: Thrombin inhibition screen of crude macrocycle reactions (residual thrombin activity, fluorogenic substrate Z-Gly-Gly-Arg-AMC)
# Assay type: biochemical
# Test Conditions: 10 µM macrocycle concentration; macrocycles containing acid 14; crude reaction; original screen
Numbered stars: 1 amine (or outer) side, 2 acyl side, 3 side chain; on linkers, the order of the positions; unused ones are H or OH. Bridge positions count the residues as written; N and C are the ends. Square brackets hold non-standard residues; d marks the D form. Peptide text beside a SMILES is read from it. * marks the point of attachment. 2Thenoyl(5-Cl) = O=C(c1ccc(Cl)s1)*; Cysteamide = C(CS[*:3])N[*:1]; dDap = NC[C@@H](N)C(=O)O; Mpa = O=C(O)CCS
Experimental Endpoint: % thrombin activity, Original screen (%)

Some compounds with known % thrombin activity, Original screen results, for comparison:
Compound	Scale Unit	% thrombin activity, Original screen
O=C1CCSSCCNC(=O)[C@@H]2CCCN2C(=O)[C@@H](Cc2c[nH]c3ccccc23)NC(=O)[C@@H](CNC(=O)c2ccc(Cl)s2)N1 [X D4 w B1] ([Mpa][dDap](2Thenoyl(5-Cl))[dW]P-Cysteamide; disulfide 1-C)	%	68.9
O=C1CCSSCCNC(=O)[C@H]2CCCN(C2)C(=O)[C@H](Cc2c[nH]c3ccccc23)NC(=O)C2(CCN(C(=O)c3ccc(Cl)s3)CC2)N1	%	95.3
CC(C)[C@H]1NC(=O)C2(CCN(C(=O)c3ccc(Cl)s3)CC2)NC(=O)CCSSCCNC(=O)c2cccc(c2)CNC1=O	%	84.9
C[C@H]1NC(=O)C2(CCN(C(=O)c3ccc(Cl)s3)CC2)NC(=O)c2cccc(c2)CNC(=O)CCSSCCNC1=O	%	86.2

(a) O=C1CCSSCCNC(=O)[C@@H](CNC(=O)c2ccc(Cl)s2)NC(=O)[C@H](Cc2c[nH]c3ccccc23)NC(=O)CCN1
(b) CC(C)C[C@@H]1NC(=O)c2cccc(c2)CNC(=O)C2(CCN(C(=O)c3ccc(Cl)s3)CC2)NC(=O)CCSSCCNC1=O
# compare % thrombin activity, Original screen for a vs b ; return the one with the smaller value Your choice should be expressed through its label.
a

====

# Target Of Assay: MDM2 (Homo sapiens, UniProt Q00987)
# Sequence (Q00987 whole entry): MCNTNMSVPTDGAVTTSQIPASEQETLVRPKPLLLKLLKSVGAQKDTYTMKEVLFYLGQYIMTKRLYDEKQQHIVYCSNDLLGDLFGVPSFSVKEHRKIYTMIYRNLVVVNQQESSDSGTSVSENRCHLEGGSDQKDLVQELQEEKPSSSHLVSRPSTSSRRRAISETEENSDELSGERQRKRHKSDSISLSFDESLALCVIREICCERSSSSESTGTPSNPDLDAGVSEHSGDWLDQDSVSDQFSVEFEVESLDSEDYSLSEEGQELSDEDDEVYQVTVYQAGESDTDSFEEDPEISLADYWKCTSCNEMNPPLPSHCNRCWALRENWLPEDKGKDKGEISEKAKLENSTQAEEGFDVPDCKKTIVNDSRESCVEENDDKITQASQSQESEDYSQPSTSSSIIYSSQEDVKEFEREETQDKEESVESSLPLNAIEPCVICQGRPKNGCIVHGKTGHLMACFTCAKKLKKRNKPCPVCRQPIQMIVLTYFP
# Method Notes: MDM2 binding screen of Libraries 3 and 4: displacement of fluorescent probe F-M8 at 750 nM macrocycle
# Test Conditions: Panel b, Library 3: 63 scaffolds combinatorially acylated with 15 carboxylic acids at 30 picomole scale; displacement of fluorescent peptide probe; macrocycle 750 nM
Experimental Endpoint: fraction of fluorescent probe displaced

Some compounds with known fraction of fluorescent probe displaced results, for comparison:
Compound	fraction of fluorescent probe displaced
Cn1cc(C[C@@H]2NC(=O)[C@@H](CNC(=O)c3cccc(Oc4ccccc4)c3)NC(=O)[C@H]3CCCN(C3)C(=O)CCSSCCNC2=O)c2ccccc21 [X-Nip-D-Dap-Me-Trp + Acid 111]	0.048
O=C(NC[C@H]1NC(=O)[C@H]2CCCN(C2)C(=O)CCSSCCNC(=O)[C@@H](Cc2c[nH]c3ccccc23)NC1=O)c1ccc2ccccc2c1 [X-Nip-D-Dap-D-Trp + Acid 107]	0.050
O=C(/C=C/c1ccc2ccccc2c1)NC[C@H]1NC(=O)C2(CC2)CNC(=O)CCSSCCNC(=O)[C@H](Cc2cccc3ccccc23)NC1=O [X-Amcp-D-Dap-1-NaI + Acid 112]	-0.00533
CC(Oc1cccc(Cl)c1)C(=O)NC[C@H]1NC(=O)[C@@H]2CN(CCO2)C(=O)CCSSCCNC(=O)[C@H](Cc2cccc3ccccc23)NC1=O (stereo partly drawn) [X-Cop-D-Dap-1-NaI + Acid 113]	0.008
Cn1cc(C[C@@H]2NC(=O)CN(CCNC(=O)c3ccc(Cl)cc3)C(=O)C3(CC3)CNC(=O)CCSSCCNC2=O)c2ccccc21 [X-Amcp-N-Aeg-Me-Trp + Acid 25]	-0.012
O=C(NC[C@H]1NC(=O)[C@H]2CCCN(C2)C(=O)CCSSCCNC(=O)[C@@H](Cc2c[nH]c3ccccc23)NC1=O)c1ccc(Cl)cc1 [X-Nip-D-Dap-D-Trp + Acid 25]	0.00133

(I) O=C(NC[C@H]1NC(=O)[C@H]2CCCN(C2)C(=O)CCSSCCNC(=O)[C@H](Cc2ccc3ccccc3c2)NC1=O)c1cccc(Oc2ccccc2)c1 [X-Nip-D-Dap-2-Nal + Acid 111]
(II) O=C(C=Cc1ccc(OCc2ccccc2)cc1)NCC1NC(=O)C2CN(CCO2)C(=O)CCSSCCNC(=O)C(Cc2ccc3ccccc3c2)NC1=O [X-Cop-D-Dap-2-Nal + Acid 110]
(III) O=C1CN(CCNC(=O)C2CC2c2ccccc2)C(=O)C2CN(CCO2)C(=O)CCSSCCNC(=O)C(Cc2ccc3ccccc3c2)N1 (centres unmarked) [X-Cop-N-Aeg-2-Nal + Acid 105]
(IV) Cn1cc(C[C@@H]2NC(=O)[C@@H](CNC(=O)c3ccc(Cl)s3)NC(=O)C3(CC3)CNC(=O)CCSSCCNC2=O)c2ccccc21 [X-Amcp-D-Dap-Me-Trp + Acid 14]
(V) O=C(/C=C/c1ccc2ccccc2c1)NC[C@@H]1NC(=O)C2(CC2)CNC(=O)CCSSCCNC(=O)[C@@H](Cc2c[nH]c3ccccc23)NC1=O [X-Amcp-Dap-D-Trp + Acid 112]
Arrange the 5 entries by fraction of fluorescent probe displaced so the values rise. Form field (ranking): labels in requested order.
IV, III, I, V, II

====

# Target Of Assay: MDM2 (Homo sapiens, UniProt Q00987)
# Method Notes: MDM2 binding screen: displacement of fluorescent p53 peptide probe FP53 (fluorescence polarization)
# Test Conditions: Acid 14; replicate; crude macrocycle reactions
# Procedure: We screened Library 2 in 384-microwell plates by dispensing the target protein MDM2 and reporter peptide into the wells containing the macrocycle reactions. The products were screened for displacement of a p53-based fluorescent peptide from human MDM2. […] For each macrocycle, the MDM2 binding was measured once. One fluorescence anisotropy reading was taken with a Tecan Infinite F200 Pro fluorescence plate reader (excitation at 485 nm, emission at 535 nm) at 25 °C. […]
Numbered stars: 1 amine (or outer) side, 2 acyl side, 3 side chain; on linkers, the order of the positions; unused ones are H or OH. Bridge positions count the residues as written; N and C are the ends. Square brackets hold non-standard residues; d marks the D form. Peptide text beside a SMILES is read from it. * marks the point of attachment. 2Thenoyl(5-Cl) = O=C(c1ccc(Cl)s1)*; Cysteamide = C(CS[*:3])N[*:1]; Api = NC1(C(=O)O)CCNCC1; Dap = NC[C@H](N)C(=O)O; Mpa = O=C(O)CCS
Experimental Endpoint: fraction fluorescent probe displaced, Replicate

Molecule	Value Measured
O=C1CCSSCCNC(=O)C2CC(NC(=O)c3ccc(Cl)s3)CN2C(=O)c2cccc(c2)CNC(=O)C(Cc2c[nH]c3ccccc23)N1 (centres unmarked) [X W B5 D5 Acid 14]	0.10
O=C1CCSSCCNC(=O)[C@H](Cc2c[nH]c3ccccc23)NC(=O)[C@H]2CCCN(C2)C(=O)[C@H](CNC(=O)c2ccc(Cl)s2)N1 [X D3 B4 W Acid 14]	0.12
O=C1NC2(CCN(C(=O)c3ccc(Cl)s3)CC2)C(=O)NCCSSCCC(=O)N2CCCC2C(=O)NC1Cc1ccccc1 (centres unmarked) [X B1 F D6 Acid 14] ([Mpa]PF[Api](2Thenoyl(5-Cl))-Cysteamide; disulfide 1-C; configuration not given here)	0.07
O=C1CCSSCCNC(=O)[C@H](Cc2ccccc2)NC(=O)[C@H]2CCCN(C2)C(=O)[C@H](CNC(=O)c2ccc(Cl)s2)N1 [X D3 B4 F Acid 14]	0.10
O=C(NC[C@@H]1NC(=O)[C@H](Cc2ccccc2)NC(=O)[C@@H]2CCCN2C(=O)CCSSCCNC1=O)c1ccc(Cl)s1 [X B1 F D3 Acid 14] ([Mpa]PF[Dap](2Thenoyl(5-Cl))-Cysteamide; disulfide 1-C)	0.10
